Reported Z-avg (nm) is given for each of the following molecules.
Assay: Dynamic light scattering of LNPs: Z-average diameter, number average diameter, PDI
Assay type: physicochemical
Conditions: LNP, sg:mRNA 1:1, N/P about 6, 50/9/38/3; Table 2, Experiments 2-20
readout_name: Z-avg (nm)

>>> print(df.to_string())
                                   molecule  readout_name  endpoint_value
0  CCCCC/C=C\C/C=C\CCCCCCCC(=O)OCC(COC(=O)CCC(OCCCCCCCC)OCCCCCCCC)COC(=O)OC1CCN(CC)CC1 (stereo not drawn)    Z-avg (nm)           70.97
1  CCCCC/C=C\C/C=C\CCCCCCCC(=O)OCC(COC(=O)CCC(OCCCCCCCC)OCCCCCCCC)COC(=O)NC1CCN(CC)C1 (stereo not drawn)    Z-avg (nm)           74.83
2  CCCCCCCCCCOC(=O)CCCCCCCC(=O)OCC(COC(=O)CCCCCC(=O)OC(CCCCCCCC)CCCCCCCC)COC(=O)OCCCN(CC)CC (stereo not drawn)    Z-avg (nm)           111.8
3  CCCCCC/C=C\COC(=O)CCCCCCCCCCCC(=O)OCC(COC(=O)CCC(OCCCCCCCC)OCCCCCCCC)COC(=O)OCCCN(CC)CC (stereo not drawn)    Z-avg (nm)           83.47
4  CCCCCCCCOC(CCC(=O)OCC(COC(=O)CCCCCCCCCCC(=O)OCCCCCCC)COC(=O)OCCCN(CC)CC)OCCCCCCCC (stereo not drawn)    Z-avg (nm)           87.26
5  CCCCCCCCOC(CCC(=O)OCC(COC(=O)CCCCCCCC(=O)OCCCCCC)COC(=O)OCCCN(CC)CC)OCCCCCCCC (stereo not drawn)    Z-avg (nm)             102
